experiment summary: IV and PO single dose pharmacokinetic studies in SD rats
Assay type: in vivo
recorded conditions: Sprague-Dawley, rat, plasma, male SD rats, oral gavage 20 mg/kg vs IV bolus 2 mg/kg
Measured bioavailability values are reported for all entries that follow.
value kind: bioavailability (%)

[[record]]
entry_smiles = "COC(=O)N[C@H](C(=O)N1C[C@]2(CCCOC2)C[C@H]1c1nc2ccc3cc(-c4ccc5c(ccc6nc([C@@H]7C[C@@H]8CCC[C@@H]8N7C(=O)[C@@H](NC(=O)OC)C(C)C)[nH]c65)c4)ccc3c2[nH]1)C(C)C"
unit_text = "%"
result_value = 2.6

[[record]]
entry_smiles = "COC(=O)N[C@H](C(=O)N1C[C@]2(CCCOC2)C[C@H]1c1nc2ccc3cc(-c4ccc(-c5cnc([C@@H]6C[C@@H]7CCC[C@@H]7N6C(=O)[C@@H](NC(=O)OC)C(C)C)[nH]5)cc4)ccc3c2[nH]1)C(C)C"
unit_text = "%"
result_value = 5.7


* * *

Measured bioavailability values are reported for all entries that follow.
experiment summary: IV and PO single dose pharmacokinetic studies in SD rats
Format: in vivo
recorded conditions: Sprague-Dawley, rat, plasma, male SD rats, oral gavage 20 mg/kg vs IV bolus 2 mg/kg
value kind: bioavailability (%)

[[record]]
compound = "COC(=O)N[C@H](C(=O)N1C[C@]2(CCCOC2)C[C@H]1c1ncc(-c2ccc(-c3ccc4c(ccc5nc([C@@H]6CC7(CC7)CN6C(=O)[C@@H](NC(=O)OC)C(C)C)[nH]c54)c3)cc2)[nH]1)C(C)C [Compound 28]"
unit_text = "%"
result_value = 7.2

[[record]]
compound = "COC(=O)N[C@H](C(=O)N1C[C@]2(CCCOC2)C[C@H]1c1ncc(-c2ccc(-c3ccc(-c4cnc([C@@H]5C[C@@H]6CCC[C@@H]6N5C(=O)[C@@H](NC(=O)OC)C(C)C)[nH]4)cc3)cc2)[nH]1)C(C)C [Compound 37]"
unit_text = "%"
result_value = 114


* * *

System: GT1a replicon encoding NS5A mutation M28T
experiment summary: Transient replication assay, GT1a replicon with NS5A mutation M28T
Format: cell-based
recorded conditions: Hepatitis C virus, read-out: EC50 1a M28T
value kind: EC50 (nM)

[[record]]
entry_smiles = "COC(=O)N[C@H](C(=O)N1C[C@]2(CCCOC2)C[C@H]1c1ncc(-c2ccc(-c3ccc4c(ccc5nc([C@@H]6C[C@@]7(CCCOC7)CN6C(=O)[C@@H](NC(=O)OC)C(C)C)[nH]c54)c3)cc2)[nH]1)C(C)C"
unit_text = "nM"
result_value = 0.02

[[record]]
entry_smiles = "COC(=O)N[C@H](C(=O)N1C[C@]2(CCCOC2)C[C@H]1c1ncc(-c2ccc(-c3ccc4c(ccc5nc([C@@H]6CC7(CC7)CN6C(=O)[C@@H](NC(=O)OC)C(C)C)[nH]c54)c3)cc2)[nH]1)C(C)C"
unit_text = "nM"
result_value = 0.09

[[record]]
entry_smiles = "COC(=O)N[C@H](C(=O)N1C[C@]2(CCCOC2)C[C@H]1c1nc2ccc3cc(-c4ccc(-c5cnc([C@@H]6C[C@@H]7COC[C@@H]7N6C(=O)[C@@H](NC(=O)OC)C(C)C)[nH]5)cc4)ccc3c2[nH]1)C(C)C"
unit_text = "nM"
result_value = 0.03

[[record]]
entry_smiles = "COC(=O)N[C@H](C(=O)N1CCC[C@H]1c1ncc(-c2ccc(-c3ccc4c(ccc5nc([C@@H]6C[C@@]7(CCCOC7)CN6C(=O)[C@@H](NC(=O)OC)C(C)C)[nH]c54)c3)cc2)[nH]1)C(C)C"
unit_text = "nM"
result_value = 0.06


* * *

Tested on: GT1a replicon encoding NS5A mutation M28T
experiment summary: Transient replication assay, GT1a replicon with NS5A mutation M28T
Format: cell-based
recorded conditions: Hepatitis C virus, read-out: EC50 1a M28T
Measured EC50 values are reported for all entries that follow.
value kind: EC50 (nM)

[[record]]
compound = "COC(=O)N[C@H](C(=O)N1CC2(CCOCC2)C[C@H]1c1ncc(-c2ccc(-c3ccc4c(ccc5nc([C@@H]6CCCN6C(=O)[C@@H](NC(=O)OC)C(C)C)[nH]c54)c3)cc2)[nH]1)C(C)C"
value_kind = "EC50"
result_value = 0.9

[[record]]
compound = "COC(=O)N[C@H](C(=O)N1CCC[C@H]1c1nc2c([nH]1)-c1ccc(-c3ccc4c(ccc5nc([C@@H]6C[C@@]7(CCCOC7)CN6C(=O)[C@@H](NC(=O)OC)C(C)C)[nH]c54)c3)cc1OC2)C(C)C"
value_kind = "EC50"
result_value = 0.5

[[record]]
compound = "COC(=O)N[C@H](C(=O)N1C[C@]2(CCCOC2)C[C@H]1c1ncc(-c2ccc(-c3ccc4c(ccc5nc([C@@H]6C[C@@H]7COC[C@@H]7N6C(=O)[C@@H](NC(=O)OC)C(C)C)[nH]c54)c3)cc2)[nH]1)C(C)C"
value_kind = "EC50"
result_value = 0.2

[[record]]
compound = "COC(=O)N[C@H](C(=O)N1CCC[C@H]1c1nc2ccc3cc(-c4ccc5c(ccc6nc([C@@H]7C[C@@]8(CCCOC8)CN7C(=O)[C@@H](NC(=O)OC)C(C)C)[nH]c65)c4)ccc3c2[nH]1)C(C)C"
value_kind = "EC50"
result_value = 0.05

[[record]]
compound = "COC(=O)N[C@H](C(=O)N1C[C@@]2(CCCCO2)C[C@H]1c1nc(-c2ccc(-c3ccc4c(ccc5nc([C@@H]6CCCN6C(=O)[C@@H](NC(=O)OC)C(C)C)[nH]c54)c3)cc2)c[nH]1)C(C)C"
value_kind = "EC50"
result_value = 6

[[record]]
compound = "COC(=O)N[C@H](C(=O)N1[C@H](c2nc3ccc4cc(-c5ccc(-c6cnc([C@@H]7C[C@@]8(CCCOC8)CN7C(=O)[C@@H](NC(=O)OC)C7C[C@@H](C)O[C@H](C)C7)[nH]6)cc5)ccc4c3[nH]2)C[C@@H]2CCCC[C@@H]21)C(C)C (stereo in doubt)"
value_kind = "EC50"
result_value = 0.002

[[record]]
compound = "COC(=O)N[C@H](C(=O)N1C[C@]2(CCCOC2)C[C@H]1c1nc2ccc3cc(-c4ccc5c(ccc6nc([C@@H]7C[C@@]8(CCCOC8)CN7C(=O)[C@@H](NC(=O)OC)C(C)C)[nH]c65)c4)ccc3c2[nH]1)C(C)C"
value_kind = "EC50"
result_value = 0.007

[[record]]
compound = "COC(=O)N[C@H](C(=O)N1CCC[C@H]1c1ncc(-c2ccc(-c3ccc4c(ccc5nc([C@@H]6CCCN6C(=O)[C@@H](NC(=O)OC)C(C)C)[nH]c54)c3)cc2)[nH]1)C(C)C"
value_kind = "EC50"
result_value = 1

[[record]]
compound = "COC(=O)N[C@H](C(=O)N1C[C@]2(CCCOC2)C[C@H]1c1nc2ccc3cc(-c4ccc(-c5cnc([C@@H]6C[C@@H]7CCC[C@@H]7N6C(=O)[C@@H](NC(=O)OC)C(C)C)[nH]5)cc4)ccc3c2[nH]1)C(C)C"
value_kind = "EC50"
result_value = 0.04


* * *

experiment summary: IV and PO single dose pharmacokinetic studies in SD rats
Format: in vivo
recorded conditions: Sprague-Dawley, rat, plasma, male SD rats, oral gavage 20 mg/kg vs IV bolus 2 mg/kg
Label scheme for bioavailability: lower than 9% is condition not met, 9% and above is condition met.

[[record]]
molecule = "COC(=O)N[C@H](C(=O)N1C[C@]2(CCCOC2)C[C@H]1c1nc2ccc3cc(-c4ccc(-c5cnc([C@@H]6C[C@H]7C[C@H]7N6C(=O)[C@@H](NC(=O)OC)C(C)C)[nH]5)cc4)ccc3c2[nH]1)C(C)C [Compound 5]"
class_assignment = "condition met"

[[record]]
molecule = "COC(=O)N[C@H](C(=O)N1C[C@]2(CCCOC2)C[C@H]1c1ncc(-c2ccc(-c3ccc4c(ccc5nc([C@@H]6C[C@@H]7CCC[C@@H]7N6C(=O)[C@@H](NC(=O)OC)C(C)C)[nH]c54)c3)cc2)[nH]1)C(C)C [Compound 16]"
class_assignment = "condition met"

[[record]]
molecule = "COC(=O)N[C@H](C(=O)N1CC2(CC2)C[C@H]1c1nc2ccc3cc(-c4ccc5c(ccc6nc([C@@H]7C[C@@]8(CCCOC8)CN7C(=O)[C@@H](NC(=O)OC)C(C)C)[nH]c65)c4)ccc3c2[nH]1)C(C)C [Compound 7]"
class_assignment = "condition not met"

[[record]]
molecule = "COC(=O)N[C@H](C(=O)N1CC2(CC2)C[C@H]1c1ncc(-c2ccc(-c3ccc4c(ccc5nc([C@@H]6C[C@@]7(CCCOC7)CN6C(=O)[C@@H](NC(=O)OC)C(C)C)[nH]c54)c3)cc2)[nH]1)C(C)C [Compound 8]"
class_assignment = "condition not met"

[[record]]
molecule = "COC(=O)N[C@H](C(=O)N1[C@H](c2nc3ccc4cc(-c5ccc(-c6cnc([C@@H]7C[C@@]8(CCCOC8)CN7C(=O)[C@@H](NC(=O)OC)C7C[C@@H](C)O[C@H](C)C7)[nH]6)cc5)ccc4c3[nH]2)C[C@@H]2CCCC[C@@H]21)C(C)C (stereo in doubt) [Compound 38]"
class_assignment = "condition met"

[[record]]
molecule = "COC(=O)N[C@H](C(=O)N1C[C@]2(CCCOC2)C[C@H]1c1nc2ccc3cc(-c4ccc5c(ccc6nc([C@@H]7C[C@H]8C[C@H]8N7C(=O)[C@@H](NC(=O)OC)C(C)C)[nH]c65)c4)ccc3c2[nH]1)C(C)C [Compound 6]"
class_assignment = "condition not met"

[[record]]
molecule = "COC(=O)N[C@H](C(=O)N1C[C@]2(CCCOC2)C[C@H]1c1ncc(-c2ccc(-c3ccc4c(ccc5nc([C@@H]6C[C@@]7(CCCOC7)CN6C(=O)[C@@H](NC(=O)OC)C(C)C)[nH]c54)c3)cc2)[nH]1)C(C)C [Compound 11]"
class_assignment = "condition not met"

[[record]]
molecule = "COC(=O)N[C@H](C(=O)N1C[C@]2(CCCOC2)C[C@H]1c1nc2ccc3cc(-c4ccc(-c5cnc([C@@H]6C[C@@H]7COC[C@@H]7N6C(=O)[C@@H](NC(=O)OC)C(C)C)[nH]5)cc4)ccc3c2[nH]1)C(C)C [Compound 34]"
class_assignment = "condition not met"

[[record]]
molecule = "COC(=O)N[C@H](C(=O)N1C[C@]2(CCCOC2)C[C@H]1c1ncc(-c2ccc(-c3ccc4c(ccc5nc([C@@H]6C[C@@H]7CCCC[C@@H]7N6C(=O)[C@@H](NC(=O)OC)C(C)C)[nH]c54)c3)cc2)[nH]1)C(C)C [Compound 29]"
class_assignment = "condition met"

[[record]]
molecule = "COC(=O)N[C@H](C(=O)N1C[C@]2(CCCOC2)C[C@H]1c1ncc(-c2ccc(-c3ccc4c(ccc5nc([C@@H]6C[C@H]7C[C@H]7N6C(=O)[C@@H](NC(=O)OC)C(C)C)[nH]c54)c3)cc2)[nH]1)C(C)C [Compound 18]"
class_assignment = "condition not met"

[[record]]
molecule = "COC(=O)N[C@H](C(=O)N1C[C@]2(CCCOC2)C[C@H]1c1nc2ccc3cc(-c4ccc(-c5cnc([C@@H]6C[C@@H]7CCCC[C@@H]7N6C(=O)[C@@H](NC(=O)OC)C(C)C)[nH]5)cc4)ccc3c2[nH]1)C(C)C [Compound 24]"
class_assignment = "condition not met"

[[record]]
molecule = "COC(=O)N[C@H](C(=O)N1CCC[C@H]1c1ncc(-c2ccc(-c3ccc4c(ccc5nc([C@@H]6C[C@@]7(CCCOC7)CN6C(=O)[C@@H](NC(=O)OC)C(C)C)[nH]c54)c3)cc2)[nH]1)C(C)C [Compound 44]"
class_assignment = "condition met"

[[record]]
molecule = "COC(=O)N[C@H](C(=O)N1C[C@]2(CCCOC2)C[C@H]1c1nc2ccc3cc(-c4ccc5c(ccc6nc([C@@H]7C[C@@]8(CCCOC8)CN7C(=O)[C@@H](NC(=O)OC)C(C)C)[nH]c65)c4)ccc3c2[nH]1)C(C)C [Compound 31]"
class_assignment = "condition not met"

[[record]]
molecule = "COC(=O)N[C@H](C(=O)N1C[C@]2(CCCOC2)C[C@H]1c1nc2ccc3cc(-c4ccc5c(ccc6nc([C@@H]7C[C@@H]8C[C@@H]8N7C(=O)[C@@H](NC(=O)OC)C(C)C)[nH]c65)c4)ccc3c2[nH]1)C(C)C [Compound 21]"
class_assignment = "condition not met"

[[record]]
molecule = "COC(=O)N[C@H](C(=O)N1C[C@]2(CCCOC2)C[C@H]1c1nc2ccc3cc(-c4ccc(-c5cnc([C@@H]6C[C@@H]7C[C@@H]7N6C(=O)[C@@H](NC(=O)OC)C(C)C)[nH]5)cc4)ccc3c2[nH]1)C(C)C [Compound 22]"
class_assignment = "condition met"

[[record]]
molecule = "COC(=O)N[C@H](C(=O)N1C[C@]2(CCCOC2)C[C@H]1c1ncc(-c2ccc(-c3ccc(-c4cnc([C@@H]5C[C@@H]6CCCC[C@@H]6N5C(=O)[C@@H](NC(=O)OC)C(C)C)[nH]4)cc3)cc2)[nH]1)C(C)C [Compound 32]"
class_assignment = "condition met"

[[record]]
molecule = "COC(=O)N[C@H](C(=O)N1CCC[C@H]1c1nc2ccc3cc(-c4ccc5c(ccc6nc([C@@H]7C[C@@]8(CCCOC8)CN7C(=O)[C@@H](NC(=O)OC)C(C)C)[nH]c65)c4)ccc3c2[nH]1)C(C)C [Compound 48]"
class_assignment = "condition not met"


Value source: patent US10407445B2
